Molecular target: biotinylated CD59 (Homo sapiens)
Construct: Recombinant soluble human CD59 with an additional C-terminal cysteine residue
Sequence (P13987 26-102 limits assumed): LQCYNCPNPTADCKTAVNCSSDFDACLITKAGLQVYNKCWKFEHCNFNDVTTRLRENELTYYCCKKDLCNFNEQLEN
Test: mRNA-display cyclic peptide screen against CD59-biotin, NGS abundance after 6th selection round
Conditions: raw NGS counts of peptide sequence, sequencing sample Seq I, sheet R6 (6th selection round)
From the text: To discover novel non‐protein CD59 ligands, we screened a library of 10^12 cyclic peptides against CD59 using mRNA‐display (Figure 2a).^[ [23], [24], [25], [26], [27], [28], [29] ^] Briefly, an mRNA library was designed in which the start codon was reprogrammed from Met to N‐chloroacetyl‐D‐Tyr (ClAc‐D‐Tyr), followed by 10–12 randomly encoded natural amino acids, a Cys residue, a (GlySer)3 linker, and a stop codon. […]
Value kind: Counts Seq I
Answers are plain numbers.

Please look at the items below and tell me Counts Seq I for each one, in order.
1. STYNDFFRVPC
2. WRDRFDQCVR
3. YIVGSSDYTRG
4. CFARRLSSSHSL
5. WIRGSRWWTQS

Solution:
1: 650; 2: 169; 3: 1825; 4: 705; 5: 146

Report Counts Seq I for every entry below.
1. CFRYRVTPTSY
2. CFAARARNNQTV
3. CFSWRLGPAEK
4. CYGGRTSIYAWS

Solution:
100
396
87
142

List the reported Counts Seq I of each sequence below.
1. CLRRHVTASDV
2. CFSQRLDRTSS
3. YVFWSRTHTYG

Solution:
1: 174; 2: 116; 3: 751

Go through the items and report each one's Counts Seq I.
1. LCYVKGSKNFT
2. LGGRGCFRPCSAAAAAAARTGGG

Solution:
1: 385; 2: 220

Origin of measurements: paper PMC12207370
